system: mTOR (Homo sapiens)
Construct: FLAG; made in house
assayExplanation: In Vitro mTOR Kinase Assay (Echo), Test (a)(ii)
Format: biochemical
conditionInfo: table of enzyme assay Test (a)(ii); read-out: Test (a)(ii) IC50
pIC50: −log10 of the molar value.
Lab note: anything with pIC50 at or over 8 counts as YES; the rest go in NO.

Observe how each entry below is paired with its result.
Cc1csc(S(=O)(=O)C2(c3cc(N4CCOC[C@@H]4C)nc(-c4ccc(NC(=O)NCc5ncc[nH]5)cc4)n3)CC2)n1 [Example 36n]
NO
O=C(NCCO)Nc1ccc(-c2nc(N3CCOCC3)cc(C3(S(=O)(=O)c4ccccc4)CC3)n2)cc1 [Example 36de]
YES
C[C@H]1COCCN1c1cc(C2(S(=O)(=O)CCO)CC2)nc(-c2ccc(NC(=O)Nc3ncns3)cc2)n1 [Example 16c]
YES

In: Is it the case that `CCCNC(=O)Nc1ccc(-c2nc(N3CCOC[C@@H]3C)cc(C3(S(C)(=O)=O)CC3)n2)cc1` has pIC50 reaching or exceeding 8?
Out: YES

In: Another compound: CCNC(=O)Nc1ccc(-c2nc(N3CCOC[C@@H]3C)cc(C3(S(=O)(=O)c4ccc(F)cc4C)CC3)n2)cc1 [Example 82e]
Out: NO

In: Another compound: C[C@H]1COCCN1c1cc(C2(S(=O)(=O)c3cc(F)ccc3F)CC2)nc(-c2ccc(NC(=O)NCC(F)F)cc2)n1 [Example 60d]
Out: NO

In: Another compound: `C[C@H]1COCCN1c1cc(C2(S(=O)(=O)c3ccc(F)cc3)CC2)nc(-c2ccc(NC(=O)NCCN(C)C)cc2)n1`
Out: NO

In: Another compound: Cc1csc(S(=O)(=O)C2(c3cc(N4CCOCC4)nc(-c4ccc(NC(=O)NC5CCC5)cc4)n3)CC2)n1 [Example 42e]
Out: YES

In: Another compound: C[C@H]1COCCN1c1cc(C2(S(=O)(=O)c3ccc(C#N)cc3Cl)CC2)nc(-c2ccc(NC(=O)NC3CC3)cc2)n1 [Example 85g]
Out: NO

In: Another compound: `C[C@H]1COCCN1c1cc(C2(S(C)(=O)=O)CCC2)nc(-c2ccc(NC(=O)Nc3ccccn3)cc2)n1`
Out: YES

In: Another compound: CCCNC(=O)Nc1ccc(-c2nc(N3CCOCC3)cc(C3(S(=O)(=O)C4CC4)CC3)n2)cc1 [Example 13g]
Out: YES

* * *

system: mTOR (Homo sapiens, UniProt P42345)
Construct: FLAG; made in house
Sequence (P42345 1362-2549): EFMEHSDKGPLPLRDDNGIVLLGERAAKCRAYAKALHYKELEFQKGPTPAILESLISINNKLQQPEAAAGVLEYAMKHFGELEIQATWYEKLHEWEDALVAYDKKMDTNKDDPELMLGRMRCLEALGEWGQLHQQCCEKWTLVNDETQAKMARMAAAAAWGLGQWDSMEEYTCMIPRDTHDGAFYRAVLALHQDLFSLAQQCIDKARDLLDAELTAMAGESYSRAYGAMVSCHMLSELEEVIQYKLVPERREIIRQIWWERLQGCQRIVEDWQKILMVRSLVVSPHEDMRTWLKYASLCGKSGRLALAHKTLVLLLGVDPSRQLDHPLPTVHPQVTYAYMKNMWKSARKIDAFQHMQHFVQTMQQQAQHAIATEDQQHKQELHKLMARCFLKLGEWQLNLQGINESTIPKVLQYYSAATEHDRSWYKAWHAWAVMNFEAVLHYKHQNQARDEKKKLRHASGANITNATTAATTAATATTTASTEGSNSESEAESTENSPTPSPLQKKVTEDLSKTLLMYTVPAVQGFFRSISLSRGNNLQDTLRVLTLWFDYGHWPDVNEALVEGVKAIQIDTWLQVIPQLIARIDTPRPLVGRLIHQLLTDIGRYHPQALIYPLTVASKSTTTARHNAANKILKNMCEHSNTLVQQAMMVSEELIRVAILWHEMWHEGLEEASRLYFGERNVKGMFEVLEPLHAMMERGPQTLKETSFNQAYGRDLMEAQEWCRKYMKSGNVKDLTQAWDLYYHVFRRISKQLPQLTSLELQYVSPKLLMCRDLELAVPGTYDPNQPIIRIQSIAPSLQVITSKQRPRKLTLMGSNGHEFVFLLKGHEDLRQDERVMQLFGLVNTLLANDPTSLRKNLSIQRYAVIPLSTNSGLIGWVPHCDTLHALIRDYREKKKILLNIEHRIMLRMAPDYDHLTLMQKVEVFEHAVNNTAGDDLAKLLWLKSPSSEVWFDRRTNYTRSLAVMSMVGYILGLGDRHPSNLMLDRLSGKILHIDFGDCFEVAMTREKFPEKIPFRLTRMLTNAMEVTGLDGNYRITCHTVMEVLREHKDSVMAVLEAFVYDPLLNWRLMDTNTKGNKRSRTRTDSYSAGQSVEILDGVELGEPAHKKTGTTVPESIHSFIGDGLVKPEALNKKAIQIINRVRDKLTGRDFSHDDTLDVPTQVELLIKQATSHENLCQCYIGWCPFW
assayExplanation: In Vitro mTOR Kinase Assay (Echo), Test (a)(ii)
Type: biochemical
conditionInfo: table of enzyme assay Test (a)(ii); read-out: Test (a)(ii) IC50
Excerpt: (a)(ii) In Vitro mTOR Kinase Assay (Echo) The assay used AlphaScreen technology (Gray et al., Analytical Biochemistry, 2003, 313: 234-245) to determine the ability of test compounds to inhibit phosphorylation by recombinant mTOR. A C-terminal truncation of mTOR encompassing amino acid residues 1362 to 2549 of mTOR (EMBL Accession No. L34075) was stably expressed as a FLAG-tagged fusion in HEK293 cells as described by Vilella-Bach et al., Journal of Biochemistry, 1999, 274, 4266-4272. […]
reportedEndpoint: IC50
Answer with the number, then the unit.

O=C(NCCCO)Nc1ccc(-c2nc(N3CCOCC3)cc(C3(S(=O)(=O)C4CC4)CC3)n2)cc1 [Example 13h]
10.6 nM
O=C(Nc1ccc(-c2nc(N3CCOCC3)cc(C3(S(=O)(=O)c4ccc(F)cc4)CC3)n2)cc1)NC1CC1 [Example 36al]
16.1 nM
CCCNC(=O)Nc1ccc(-c2nc(N3CCOC[C@@H]3C)cc(C3(S(=O)(=O)CCCO)CCC3)n2)cc1 [Example 43k]
25.7 nM

In: IC50 of C[C@H]1COCCN1c1cc(C2(S(=O)(=O)c3cc(F)cc(F)c3)CC2)nc(-c2ccc(NC(=O)NC3CCC3)cc2)n1 [Example 19a] on mTOR (Homo sapiens, UniProt P42345)?
Out: 4.25 nM

* * *

system: mTOR (Homo sapiens)
Construct: FLAG; made in house
assayExplanation: In Vitro mTOR Kinase Assay (Echo), Test (a)(ii)
Assay type: biochemical
conditionInfo: table of enzyme assay Test (a)(ii); read-out: Test (a)(ii) IC50
reportedEndpoint: IC50 (nM)
Please respond with the number in nM and leave the unit unwritten.

Completed entries (count: 3):
C[C@H]1COCCN1c1cc(C2(S(=O)(=O)C3CCCCC3)CC2)nc(-c2ccc(NC(=O)NCCO)cc2)n1 [Example 26d]
1.2
CNC(=O)Nc1ccc(-c2nc(N3CCOC[C@@H]3C)cc(C3(S(=O)(=O)c4ccccc4)CC3)n2)cc1 [Example 36bj]
1.06
C[C@H]1COCCN1c1cc(C2(S(=O)(=O)CCCO)CCC2)nc(-c2ccc(NC(=S)NCC(F)F)cc2)n1 [Example 99g]
15.2

Could you now look at the following compound, please?
In: IC50 of C[C@H]1COCCN1c1cc(C2(S(=O)(=O)CCCO)CC2)nc(-c2ccc(NC(=O)Nc3ccc(C(F)(F)F)cc3)cc2)n1 [Example 31h] on mTOR (Homo sapiens)?
Out: 0.209

* * *

system: mTOR (Homo sapiens, UniProt P42345)
Construct: FLAG; made in house
assayExplanation: In Vitro mTOR Kinase Assay (Echo), Test (a)(ii)
Type: biochemical
conditionInfo: table of enzyme assay Test (a)(ii); read-out: Test (a)(ii) IC50
A collection of compounds and their measured IC50
Answer with the number, then the unit.

Completed entries (count: 5):
CCNC(=O)Nc1ccc(-c2nc(N3CCOC[C@@H]3C)cc(C3(S(C)(=O)=O)CCCC3)n2)cc1 [Example 4a]
2.17 nM
CCS(=O)(=O)C1(c2cc(N3CCOC[C@@H]3C)nc(-c3ccc(NC(=O)NCCO)cc3)n2)CCC1 [Example 87]
4.87 nM
CC(C)CNC(=O)Nc1ccc(-c2nc(N3CCOC[C@@H]3C)cc(C3(S(=O)(=O)c4cc(F)cc(F)c4)CC3)n2)cc1 [Example 19c]
21.4 nM
CCNC(=O)Nc1ccc(-c2nc(N3[C@@H](C)COC[C@@H]3C)cc(C3(S(C)(=O)=O)CC3)n2)cc1 [Example 91b]
5.21 nM
CNC(=S)Nc1ccc(-c2nc(N3CCOC[C@@H]3C)cc(C3(S(=O)(=O)CCCO)CC3)n2)cc1 [Example 37g]
17.9 nM

In: IC50 of C[C@H]1COCCN1c1cc(C2(S(=O)(=O)c3ccc(F)cc3)CC2)nc(-c2ccc(NC(=O)Nc3ccccn3)cc2)n1 [Example 8l] on mTOR (Homo sapiens, UniProt P42345)?
Out: 8.13 nM

In: Another compound: C[C@H]1COCCN1c1cc(C2(S(C)(=O)=O)CCNCC2)nc(-c2ccc(NC(=O)NC3CC3)cc2)n1 [Example 20]
Out: 12.8 nM

* * *

system: mTOR (Homo sapiens)
Construct: FLAG; made in house
assayExplanation: In Vitro mTOR Kinase Assay (Echo), Test (a)(ii)
Format: biochemical
conditionInfo: table of enzyme assay Test (a)(ii); read-out: Test (a)(ii) IC50
pIC50: −log10 of the molar value.
Lab note: anything with pIC50 at or over 8 counts as y; the rest go in n.

Observe how each entry below is paired with its result.
C[C@H]1COCCN1c1cc(C2(S(=O)(=O)c3ccccn3)CC2)nc(-c2ccc(NC(=O)NC3CCC3)cc2)n1 [Example 28a]
y
C[C@H]1COCCN1c1cc(C2(S(=O)(=O)CCCO)CCOCC2)nc(-c2ccc(NC(=O)Nc3cnn(C)c3)cc2)n1 [Example 36ch]
n
C[C@@H](CO)NC(=O)Nc1ccc(-c2nc(N3CCOC[C@@H]3C)cc(C3(S(=O)(=O)c4ccccc4)CC3)n2)cc1 [Example 36ec]
y
CCNC(=S)Nc1ccc(-c2nc(N3CCOC[C@@H]3C)cc(C3(S(C)(=O)=O)CC3)n2)cc1 [Example 35a]
y

Continue with the compound presented below.
In: Is it the case that `CNC(=O)Nc1ccc(-c2nc(N3CCOC[C@@H]3C)cc(C3(S(=O)(=O)c4ccc(F)cn4)CC3)n2)cc1` has pIC50 reaching or exceeding 8?
Out: y

* * *

system: mTOR (Homo sapiens)
Construct: FLAG; made in house
assayExplanation: In Vitro mTOR Kinase Assay (Echo), Test (a)(ii)
Assay type: biochemical
conditionInfo: read-out: mTOR Kinase Assay (Echo)
reportedEndpoint: pIC50
Answer as the number alone; pIC50 is minus log10 of concentration in mol/L.

CC(CO)NC(=O)Nc1ccc(-c2nc(N3CCOC[C@@H]3C)cc(C3(S(C)(=O)=O)CC3)n2)cc1 (stereo partly shown) [Example 2n]
8.07

In: Sample C[C@H]1COCCN1c1cc(C2(S(=O)(=O)C3CCCC3)CC2)nc(-c2ccc(NC(=O)NC3CC3)cc2)n1 [Example 9] — what was its pIC50?
Out: 8.74

In: Another compound: C[C@H]1COCCN1c1cc(C2(S(=O)(=O)c3ccccc3C(F)(F)F)CC2)nc(-c2ccc(NC(=O)NCCCO)cc2)n1 [Example 10l]
Out: 7.74

In: Another compound: C[C@H]1COCCN1c1cc(C2(S(=O)(=O)C3CC3)CC2)nc(-c2ccc(NC(=O)NCC(C)(C)O)cc2)n1 [Example 3r]
Out: 7.31

In: Another compound: C[C@H]1COCCN1c1cc(C2(S(=O)(=O)C3CCCC3)CC2)nc(-c2ccc(NC(=O)NC3CCC3)cc2)n1 [Example 9a]
Out: 7.89

In: Another compound: CCCNC(=O)Nc1ccc(-c2nc(N3CCOCC3)cc(C3(S(C)(=O)=O)CC3)n2)cc1 [Example 12g]
Out: 8.56

In: Another compound: CNC(=O)Nc1ccc(-c2nc(N3CCOC[C@@H]3C)cc(C3(S(=O)(=O)c4ccccc4C(F)(F)F)CC3)n2)cc1 [Example 10i]
Out: 8.23
